- Subject of test: pooled human IgG (human IgG1,2,3 and 4)
Attribute measured: Enzyme activity endpoint: IgG (ng/µL)
# unit: ng/µL | format: bare number

Request: Using the record for PRT-626 (protein) MQITSVWTKGVTPLTPEQFRYNNEDVIHAPYLAHQGWYDITKAFDGKDNLLCGAATAGNMLHWWFDQNKTEIEAYLSKHPEKQKIIFNNQELFDLKAAIDTKDSQTNSQLFNYFRDKAFPNLSARQLGVMPDLVLDMFINGYYLNVFKTQSTDVNRPPDDKDKRGGIFDHVFNRGDQTTLLTARHDLKNKGLNDISTIIKQELTEGRALALSHTYANVSISHVINLWGADFNAEGNLEAIYVTDSDANASIGMKKYFVGINAHGHVAISAKKIEGENIGAQVLGLFTLSSGKDIWQKLSLEHHHHHH , report its Enzyme activity endpoint: IgG.
Response: 0

Request: Also PRT-652 (protein) MQITSVWTKGVTPLTPEQFRYNNEDVIHAPYLAHQGWYDITKAFDGKDNLLCGAATAGNMLHWWFDQNKTEIEAYLSKHPEKQKIIFNNQELFDLKAAIDTKDSQTNSQLFNYFRDKAFPNLSARQLGVMPDLVLDMFINGYYLNVFKTQSTDVNRPYQDKDKRGGIFDAVFTRGDQTTLLTARHDLKNKGLNDISTIIKQELTEGRALALSHGTANGGYSHVINLWGADFNAEGNLEAIYVTDSDANASIGMKKYFVGINAHGHVAISAKKIEGENKGAQVLGLFTLSSGKDIWQKLSLEHHHHHH , if possible.
Response: 789
